methodNotes: soluble on expression in E. coli; label from the status in PepcDB or PDB records
measurementLabel: soluble on expression in E. coli

>  <sequenceContent>
SVYTYFSAVAGQDGEVDAEELQRCLTQSGINGTYSPFSLETCRIMIAMLDRDHTGKMGFNAFKELWAALNAWKENFMTVDQDGSGTVEHHELRQAIGLMGYRLSPQTLTTIVKRYSKNGRIFFDDYVACCVKLRALTDFFRKRDHLQQGSANFIYDDFLQGTMAI

>  <measurementLabel>
soluble on expression in E. coli

>  <result>
soluble

$$$$
>  <sequenceContent>
GGSHMELPGSSMKPSGEDQAALAAGPWEECFQAAVQLALRAGQIIRKALTEEKRVSTKTSAADLVTETDHLVEDLIISELRERFPSHRFIAEEAAASGAKCVLTHSPTWIIDPIDGTCNFVHRFPTVAVSIGFAVRQELEFGVIYHCTEERLYTGRRGRGAFCNGQRLRVSGETDLSKALVLTEIGPKRDPATLKLFLSNMERLLHAKAHGVRVIGSSTLALCHLASGAADAYYQFGLHCWDLAAATVIIREAGGIVIDTSGGPLDLMACRVVAASTREMAMLIAQALQTINYGRDDEK

>  <measurementLabel>
soluble on expression in E. coli

>  <result>
soluble

$$$$
>  <sequenceContent>
MSLKLRGHHLICLQFFRGEGYSGEFVENVKKIMERLESGETVEVVAGVDDICVACPYNRGYCGKDETSEERVREMDKAAVRLLGVSEKTTWREVAERIEKVLNEWRVFCEDCDWKEVCYGEGHHHHHH

>  <measurementLabel>
soluble on expression in E. coli

>  <result>
soluble

$$$$
>  <sequenceContent>
DSLKAEVNTLFARFDEQPLAAASIAQVHTAALFDGREVIVKVTRPNIRTQILQDFEIISWLGQSLESRLEAARALHLSEIIQDYRQIILNELDLTLEADNTRRMRHYFTGSSMMYVPEVY

>  <measurementLabel>
soluble on expression in E. coli

>  <result>
not soluble

$$$$
>  <sequenceContent>
AIAGTHSGHERNGESARGGALQRLERRLAAAWAEQDAYQIEQLAGMIYDRLVRSDPSAAATVLEQNAHRLAVAGKPAEAAELATRLIRHWRELEQRPFYLARLQQMVLEPLQALSGVEAARARTMVLEAVLAWKRASATVDTEEAAPAELAPVQDALVDAYVLCGEWARAQYQVVCRGGPAERDLAFIDEQLGPHLANDVERMLARTRLVLFYVLAGNLKAGRALVEEIQRKHPTAPMTNFVVILMQVLERARNVDSSKRRLLRNFCDDLKRVYHWAFSLDPELDAMLDDVLKAQGL

>  <measurementLabel>
soluble on expression in E. coli

>  <result>
soluble

$$$$
>  <sequenceContent>
GLEAVRKRPGMYIGSTSERGLHHLVWEIVDNSIDEALAGYANQIEVVIEKDNWIKVTDNGRGIPVDIQEKMGRPAVEVILTSSVVNALSQDLEVYVHRNETIYHQAYKKGVPQFDLKEVGTTDKTGTVIRFKADGEIFTETTVYNYETLQQRIRELAFLNKGIQITLRDERDEENVREDSYHYE

>  <measurementLabel>
soluble on expression in E. coli

>  <result>
soluble

$$$$
>  <sequenceContent>
MKNDTAALAADIVDFWKKAGPDKWFDKDAAFDNHFHDRFRDAHFAAARRELDGWLEGAESSLALMLLLDQFPRNCFRGTAHMYATDPLARFFADEAIRRGHDQAVSEDLRVFFYLPFSHAEDIAAQQRACDLNQPLGGLYLHHAEEHRDIVERFGRFPHRNGILLRETTPEERQYLEEGGFSG

>  <measurementLabel>
soluble on expression in E. coli

>  <result>
soluble

$$$$
>  <sequenceContent>
GPGSMVKKMGRDEARAGVERRPPPMLKAERQAAFRRKVRNELLLSGRERKDAERQRMEEFRRLCKAEGIQSKRLQEYDAMREEAANKLGEKLNHIEYDQSLTNAEKRKRRYNLKRNYAGQTVMDLVQKQEKHHNALTKVEKIRKKRQEEIEAARVAKRERDEMKVKRIKERMAQNALYAQRTRKGQPVMSGRVEALLNKIQRNQQQ

>  <measurementLabel>
soluble on expression in E. coli

>  <result>
soluble

$$$$
>  <sequenceContent>
MGSDKIHHHHHHMLKIELLESFIAVAECGNMSKAADKVCRTQSTLSLQIKKLEEVVGQSLLLRDNKGTTLTESGSTLLNYAYKMMQLNSQAIHDLKDCQNREIIRLGVPTDYIKFYLNSCLLEFIREFTCIELVIDTDVSGNLFKRLQQGEFDLIVATHWQAPVNGELLFSRRFHWAAAKNGQAHKRSTVPMALYPENCPIRAQVFANHQLSMRPINVLLSTPSPQALCMAVENDLAIAPIAEFRTNEHMQILDPHEHGLPPLPIFNESLYLNPETQTEATMQLITLIKANVEHLSDTID

>  <measurementLabel>
soluble on expression in E. coli

>  <result>
not soluble

$$$$
>  <sequenceContent>
MGSDKIHHHHHHMNNIIATGFNTASTDGELDSLERELRRLEAIGVDTVELALSSLDLIAGGRIVKERGDRLRTLLETFSFRYTVHGLVSSNFMDPATRRHQVDAAKALVEICDSIDARVLVQHAGFLRADQIAQRAGADERQCEALLELGEHAKAYGIRIAFENIFTTEPGQYRQTPAEVAATVKAVNHPDVVALIDFSHAYLESNYRGLDFRDQLRAMAPVLGAPGRRLSRRTATTRIVVITDGGMECSTGWTS

>  <measurementLabel>
soluble on expression in E. coli

>  <result>
not soluble

$$$$
>  <sequenceContent>
MADKREPAPGWPILKGEYEVGDVKNSVLVITCGSHLPGKPILDAGAACTGSCKTENLGIEKVVAHIISNPNIRYLLVTGSEVKGHITGQSMMSLHANGVKENRIAGALGAIPYVENLNAAAVARFQEQVQVVNLLDTEDMGAITSKVRELASKDPGAFDADPLVVEISEEGEEEEEGGVVRPVSGEIAVLRSRLKAIEARMMDI

>  <measurementLabel>
soluble on expression in E. coli

>  <result>
not soluble

$$$$
>  <sequenceContent>
AGGLKYDLDLNLSHYKSVLKSMANPDYLYEYGALRTYVGGEIGEFWVYQTAGIFQNQAEVDEWNTAHGYKDQNGNWQPLQPVAKPGDIRFIDQNGDGMLDTNDRVKVGSGTPKVSLGFNINLTYKDFDLVANFYGDFGAKRYNYTKYQLERMDHVFNYGKNALNAWTPENPDTDIPRAVSGDPNKNSRTSTRFVENGDYLRLNNLQIGYNLPVKYCKKMGLSNLRIYVGATRLFTITNYKGYDPSTGSSVGQMGYDYAAIPLSRDFMMGLKFGF

>  <measurementLabel>
soluble on expression in E. coli

>  <result>
not soluble

$$$$
>  <sequenceContent>
GPGSMAPNQFVELVDTVEKYATRGSNECGCRIDTREESIPSNTLVGYPFANAEGVGVHLSYRKGDITLSADVSSNPKATWRDVLPTFSWTRSLRGQQHEVLLRLAMTPLFAYSFSHPQFTCSSEVNFMDGFRSKFTTSTQLSMRNQLGACVEYDPSRSGVIDYTVAFLRAGCSAVLGGDFVVQYNATRGLGVHTRIPVKPFMGAVALVERGRVIIGTEARSPCGAQMMMNLDLVNSRVMLAVVRNISTVWKFTFNYSAPLPGTSSAARRFGLVFTSQDAP

>  <measurementLabel>
soluble on expression in E. coli

>  <result>
not soluble

$$$$

* * *

methodNotes: soluble on expression in E. coli; label from the status in PepcDB or PDB records

>  <sequenceContent>
MSLQLSKAAEMCYEITNSYLHIDQKSQIIASTQEAIRLTRKYLLSEIFVRWSPLNGEISFSYNGGKDCQVLLLLYLSCLWEYFFIKAQNSQFDFEFQSFPMQRLPTVFIDQEETFPTLENFVLETSERYCLSLYESQRQSGASVNMADAFRDFIKIYPETEAIVIGIRHTDPFGEALKPIQRTDSNWPDFMRLQPLLHWDLTNIWSFLLYSNEPICGLYGKGFTSIGGINNSLPNPHLRKDSNNPALHFEWEIIHAFGKDAEGERSSAINTSPISVVDKERFSKYHDNYYPGWYLVDDTLERAGRIKNEGHHHHHH

>  <soluble on expression in E. coli>
soluble

$$$$
>  <sequenceContent>
RHLCESRQQAQRWIRAGAVHVNHIPIDKPGTLVAVDATIQVKAKPAYVSRGGEKLAHALGVFPVVVRDRVCLDGGISTGGFTDCLLQAGAQLVYGIDVGYGQVDWKLRQDPRLILRERTNLRYLTPADLYTDDGPRPDLGVVDVSFISLTKVLPALWELLLPPRELIALIKPQFEVGRDRLGKNGVVRDAKARQEAVDQVITAAAALGWQCYGVTPSPILGPAGNQEFLAHFCCGANGVLENEMVS

>  <soluble on expression in E. coli>
not soluble

$$$$
>  <sequenceContent>
MSLAYDNVMKDKKIRVGLMTDSIPGGFYNEKGEWGGFDYDIATEIAKRMGVDIERVQVNNKTRIAYVQQGRVDISVSNMTHTRERDKSVDFSITYFFDGQKVLAKKGQFKSVKDMVGKKIATMQGTTSEVNVKRALKEAGDPNPDQSVISFQKESECFQALQMGRVAGWSTDASILVGYSAKEPGKFELVGNFLAEEPYGIAMPQDDSALRDAVNAALQDMWKDGTYKTIYNKWYGPGTPFEMPLAGQIEMWPEGHHHHHH

>  <soluble on expression in E. coli>
soluble

$$$$
>  <sequenceContent>
MGSDKIHHHHHHMFREDRKGLIVVEVENQDLIKTIQVKFPRLSKGQKLIAEYILKHYDKAAFLTAAKLGSSVGVSESTVVRFANELGFSGYPKLQKALQELIKNKLTTVQRIELSNDFIDQESTLKSVLKSDMENIRYTLEKINHKTFDDVVDSIFSAKRIYILGLRSSTPIAEFLGFYLNLILDNAKIISYGVSDIFEQMMNVAKGDLVIGIGFPRYAARTIEALDYAQNNEATVVAITDSLLSPLAARANHTLIAQSNMASFVDSLVAPLSVVNALIIAVGLREKDKISSTFSKLEHIWQEYEVYSYKERRRD

>  <soluble on expression in E. coli>
not soluble

$$$$
>  <sequenceContent>
MAHHHHHHMYTRLTELFFISHTFRGRMSSTFCLQPSMMRPLLEQQRRFTSIISRFSSTVTSHVSSLADTHFMPLSEQCITEPRRPYPRRVSMQENLAERLTLQRSLRAHLVPLQVIVSKEKLYIELVWPSAALRAVENQKETMAHTVKGAAADGDDDGNDAALHHAMESPARTVSSGLSQRRPLEEHRTRFLAEFLRAYSPSTDVIGSDVLIYGRRGITITDVIPVGNYALRIVFSDGHSGGIYPYEYLFHLGCEKYSRMREYIRRLRAKHKSRDPPKRAPSQRLSRSRSAQRAEGRHMNSHGQDDQ

>  <soluble on expression in E. coli>
not soluble

$$$$
>  <sequenceContent>
MAHHHHHHMEEQESAENINMIKETIFGLPNSVILKIIHNNINLKNYKIRKEAVTTLGRCLSMFILYITDGALEHCEGEKRNTIFVRDILNSLDDSLFLDIYDELKRQIAIQEEIHKKESAKEAKSAAKGDTPSGADNAQGETNQVNKQDDLDILLQALE

>  <soluble on expression in E. coli>
soluble

$$$$

Numbers sourced from the DeepSol protein solubility set.
